measuredMetric: melting point

// known answers, use as guide
>>> reportedvalue("CCN(CC)c1ccc(N)cc1C#N")
"63 to 66 °C"
>>> reportedvalue("Fc1cccc(Cl)c1COc1cc(Cl)cnc1NC(=S)Nc1ccc(Cl)cc1")
"158 to 160 °C"
>>> reportedvalue("COc1ccc(COCC(O)CO)cc1 (stereo unspecified)")
"51 to 53 °C"
>>> reportedvalue("C=CCOc1ccc2c(c1CC=C)NC(=O)CC2")
"119 to 121 °C"
>>> reportedvalue("O=[N+]([O-])c1ccc(-c2c(Cl)ncnc2NS(=O)(=O)c2ccc(Cl)cc2)cc1")
"282 to 285 °C"

Okay, now this compound:
Which melting point value is on record for CC(=O)OC(C)c1ccc2occ(-c3nnn[nH]3)c(=O)c2c1 (stereo unspecified) ?
231 to 232 °C

* * *

// values below are reported melting point

>>> reportedvalue("COC(=O)[C@H](Cc1ccc(CC(=O)O)c(C2SCCS2)c1)NC(C)=O")
"113 to 119 °C"
>>> reportedvalue("CSc1nc(=O)n(CCO)cc1F")
"161 to 162 °C"

// query melting point value for entry O=C1Nc2cccc(-c3cccc(NC(=O)c4cccc(Br)c4)c3)c2/C1=C/c1ccc[nH]1
251 to 253 °C

Item under review: O=C(O)c1ccccc1Sc1cccc2c1C(=O)NC2=O . Reported melting point?
289 to 290 °C

So what does the record say about melting point for Cc1ccccc1C(=O)P(=O)(c1ccccc1)c1ccccc1 ?
107 °C

Field request: melting point | item: CN1CCC(c2nn(-c3ccc(C(F)(F)F)cc3)c3ccc(F)cc23)CC1
126 to 128 °C

Looking for the measured melting point of Cc1ccc(C)c(OCCCC(C)(C)C(=O)Nc2cccc([N+](=O)[O-])c2)c1 , can you help?
93 to 94 °C

Which value of melting point has been reported for COc1c(CCc2ccc(NS(C)(=O)=O)cc2)cc(N2CCC(=O)NC2=O)cc1C(C)(C)C in the records?
233 to 234 °C

Entry under review: COCCOC(=O)C1=C(C)NC(C)=C(C(=O)OCCN2CCN(C(c3ccccc3)c3ccccc3)CC2)C1c1cccc([N+](=O)[O-])c1 (centres undefined) . Reported melting point?
62 to 66 °C

* * *

Attribute: melting point

Guide cases for melting point, answers given:
>>> reportedvalue("O=c1cc(-c2cccc(Cl)c2)oc2ccc(OCCCCCCN3CCC(O)CC3)cc12")
"120 to 121 °C"
>>> reportedvalue("CCn1c(N)nc(N2CCc3ccccc3CC2)c(C#N)c1=O")
"195 to 203 °C"
>>> reportedvalue("CCCCCCCCCCCCCCCCCCOc1ccc(OCc2ccccc2)c(C(=O)OC)c1")
"52 to 54 °C"
>>> reportedvalue("CC(C)(C)c1cc(NC=O)n[nH]1")
"204 to 206 °C"
>>> reportedvalue("CN(C=O)c1ccc(Cl)cc1C(=O)c1ccccc1")
"93.5 to 94.5 °C"

Fill in the blank: the reported melting point of C1=C(c2ccc(-n3ccnc3)cc2)CCNC1 is ____.
150 to 153 °C

Look up melting point for this compound: CC(C)(C)OC(=O)CCc1ccc(Cc2nnn(C(C)(C)C)n2)cc1
54 to 55 °C

# query: melting point of entry COC(=O)c1ccc(C(=O)Oc2ccc([Si](C)(C)C)cc2C(C)=O)cc1
88.5 to 90.5 °C

Request the reported melting point associated with COC(=O)c1c(C)n(-c2ccc(Cl)cc2)c(C)cc1=O
189 to 190 °C

Would you kindly share the measured melting point for Cn1ncc(-c2ccnc(Cl)n2)c1-c1ccc(Cl)cc1Cl ?
122 to 125 °C

Where do these numbers come from? They come from a melting point compilation (Tetko et al.; mined from patent text by program, amines drawn as free bases though some values may be those of a salt).
